# experimental_target: UniProt P11597
# Sequence (P11597 18-493): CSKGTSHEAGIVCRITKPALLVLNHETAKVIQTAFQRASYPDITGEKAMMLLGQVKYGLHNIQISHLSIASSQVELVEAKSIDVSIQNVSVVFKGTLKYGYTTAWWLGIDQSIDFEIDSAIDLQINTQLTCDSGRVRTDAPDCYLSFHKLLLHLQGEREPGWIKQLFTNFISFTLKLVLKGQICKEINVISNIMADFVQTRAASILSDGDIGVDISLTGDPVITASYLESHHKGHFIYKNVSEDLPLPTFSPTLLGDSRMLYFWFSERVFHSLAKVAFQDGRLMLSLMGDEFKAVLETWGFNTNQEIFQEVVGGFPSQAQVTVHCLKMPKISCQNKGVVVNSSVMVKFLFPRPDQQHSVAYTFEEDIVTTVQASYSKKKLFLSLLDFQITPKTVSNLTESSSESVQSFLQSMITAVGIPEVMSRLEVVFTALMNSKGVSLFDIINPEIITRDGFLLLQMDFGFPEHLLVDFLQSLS
# protocol_description: Assay of CETP Inhibition using Purified Components (Reconstituted Buffer Assay)
# Type: biochemical
# Set-up: made in house; host or cells: CHO cells (serum-free conditioned medium)
# test_conditions: Inhibition of CETP activity in reconstituted buffer assay; transfer of [3H]CE from HDL to LDL; read-out: IC50
metric: IC50 (µM)

Examples from the recorded data:
CC(C)NC(=O)c1cccc(N(Cc2cccc(OC(F)(F)C(F)F)c2)CC(O)C(F)(F)F)c1 (centres unmarked) : 13
Cc1ccc(Cc2cccc(N(Cc3cccc(OC(F)(F)C(F)F)c3)CC(O)C(F)(F)F)c2)cc1 (centres unmarked) : 1.6
OC(CN(Cc1cccc(OC(F)(F)F)c1)c1ccc2c(c1)Cc1ccccc1-2)C(F)(F)F (centres unmarked) [Example 201] : 4
OC(CN(Cc1cccc(C(F)(F)F)c1)c1cccc(F)c1F)C(F)(F)F (centres unmarked) : 20

a = OC(CN(Cc1cccc(OC(F)(F)C(F)F)c1)c1cccc(NCc2ccccc2)c1)C(F)(F)F (centres unmarked)
b = COc1ccc(CN(CC(O)C(F)(F)F)c2cccc(Oc3ccccc3)c2)cc1 (centres unmarked)
c = CC(C)Sc1cccc(N(Cc2cccc(OC(F)(F)C(F)F)c2)CC(O)C(F)(F)F)c1 (centres unmarked)
d = OC(CN(Cc1cccc(OC(F)(F)F)c1)c1ccc(OC(F)(F)F)cc1)C(F)(F)F (centres unmarked)
q: Rank order required: IC50, descending. Lab note: record answer as labels in requested order.
a: b, d, a, c
(b: 15 µM, d: 6 µM, a: 2.4 µM, c: 0.37 µM)
